Provenance of the data: PubChem BioAssay (Tox21)

assay: p53 small molecule agonists, cell-based qHTS assay with human liver microsomes: qHTS cell viability counter screen (AID 1963579); conditions: p53RE-bla HCT-116 viability, ATP luminescence, 16 h, HLM; series mostly up to 66 µM; also: % is scaled to controls: 0 for no effect and ±100 for the full control effect; nearly all actives have a fitted effect of over 45% in size
Results filed as inconclusive are left out. Calls of active or inactive are those of the source. Calls follow the shape of the full dose curve.
experimental.endpoint: activity change, negative = cytotoxicity

Consider the following illustrative entries.
CC(C)CC(O)Cc1ccccc1 (centres undefined); inactive
CC(=O)Nc1ncc([N+](=O)[O-])s1; inactive
CCCCCCCN; inactive
Cc1cc(C)c(N)c(Cl)c1; inactive
O=C1CCCCC1; inactive

Answer for every listed entry: what is its activity change, negative = cytotoxicity? The entries follow.
1. COC(=O)c1sccc1S(N)(=O)=O
2. Cn1c(=O)c2c(ncn2C)n(C)c1=O
3. Cc1cc(N)no1
4. CCCCCCCCCCCCCCCC(=O)OC
5. CC1(C)CO[C@@H](CC(=O)O)CN1
6. CC1CCCC(=O)C1=O (centres undefined)
7. Oc1cc(O)c2c(c1)O[C@H](c1ccc(O)c(O)c1)[C@H](O)C2

## Output
["inactive", "inactive", "inactive", "-1.62% [at 13.5 µM] (inactive)", "inactive", "inactive", "inactive"]

---

assay: cAMP Responsive Elements (CRE) small molecule agonists, cell-based qHTS assay (AID 1963590); details: CRE-bla HEK293T, beta-lactamase FRET ratio, 3 h; series mostly up to 92.4 µM; also: % is scaled to controls: 0 for no effect and ±100 for the full control effect
Inconclusive results are not listed. Active and inactive are the calls of the source. Calls follow the shape of the full dose curve.
experimental.endpoint: activation

Examples with answers:
CCCOCCOCCOCCO; inactive
Nc1ccncc1N; inactive
COc1ccc(C)cc1; inactive
CC1(C)[C@@H]2CC[C@@]1(C)[C@H](O)C2; inactive

Please look at the items below and tell me activation for each one, in order.
1. CCc1cccc(CC)c1NC(=O)C(=O)O
2. CC(C)OC(=O)CCCCC(=O)OC(C)C
3. O=C(O)c1cc(N=Nc2ccc(S(=O)(=O)Nc3ccccn3)cc2)ccc1O
4. COCCOCCOCCOCCOC
5. C[C@H]1C[C@H](O)c2ccsc2S1(=O)=O
6. C=CC(C)CCC=C(C)C (configuration not stated)
7. O=C(Cl)c1ccc(C(=O)Cl)cc1

## Output
inactive
inactive
inactive
inactive
inactive
inactive
inactive

Parameters: items (list). Returns: activation for each item.
1. C1CCC(SSC2CCCCC2)CC1
2. O=C(O)Cc1ccc(CCNS(=O)(=O)c2ccc(Cl)cc2)cc1
3. CC(C)=CCCC(C)O (configuration not stated)
4. CC(CO)c1ccccc1 (configuration not stated)

## Output
1. inactive
2. inactive
3. inactive
4. inactive

Each compound below has a recorded value; state its activation.
1. O=C[C@H](O)[C@H](O)[C@H](O)CO
2. OC1CCCC1
3. CCCCCC/C(C=O)=C\c1ccccc1

## Output
["inactive", "inactive", "inactive"]

---

assay: Nuclear factor erythroid 2-related factor 2/antioxidant responsive element (Nrf2/ARE) small molecule agonists: luciferase reporter gene qHTS assay in human keratinocytes (AID 1919969); settings: KeratinoSens HaCaT ARE-luciferase, luminescence, 24 h; series mostly up to 92.4 µM; also: nearly all actives have a fitted effect of over 35% in size
Results filed as inconclusive are left out. The source made the active and inactive calls. Calls follow the shape of the full dose curve.
Result category, one only: yes (active), no (inactive)

Below, 10 molecules whose answers are already recorded.
CC(C)COC(=O)c1ccccc1O; no
Cc1cccc(C)c1NC(=O)CC12CCCN1CCC2; no
CCC(C(=O)OCCOCCN(CC)CC)c1ccccc1 (configuration not stated); no
C=CCCCCCCCCO; no
CN(CCOc1ccc(CC2SC(=O)NC2=O)cc1)c1ccccn1 (configuration not stated); no
C/C(=C(\CCO)SS/C(CCO)=C(\C)N(C=O)Cc1cnc(C)nc1N)N(C=O)Cc1cnc(C)nc1N; no
Cn1cnc2c(F)c(Nc3ccc(Br)cc3Cl)c(C(=O)NOCCO)cc21; no
CCCCOC(=O)[C@H](C)O; no
c1ccc(SCCSc2ccccc2)cc1; yes
CCCCCCS; no

## Input Recorded test outcome, item "NC(=O)Cc1cccc(C(=O)c2ccccc2)c1N"
## Output no

## Input GET /call?item= "Cc1cc(N)no1" returns the recorded outcome of this test.
## Output no

## Input Hello, I am checking results. What call was entered for "CC(=O)c1cc2ccccc2s1" ?
## Output no

## Input Returns: the outcome recorded for "NCCNCCN" in this assay.
## Output no

## Input For "CO/N=C(/C(=O)N[C@@H]1C(=O)N2C(C(=O)O)=C(COC(N)=O)CS[C@H]12)c1ccco1" , what call appears in the results of this test?
## Output no

## Input Recorded test outcome, item "COC(=O)Cc1cccc2ccccc12"
## Output no

## Input Assay result, entry CC(CO)c1ccccc1 (configuration not stated) — outcome?
## Output no

## Input Hi team, can someone confirm the assay call for CCC(C)(O)CCC=C(C)C (configuration not stated) ?
## Output no

## Input Which outcome did this test record for the molecule "c1ccc2c(c1)CCc1ccccc1N2" ?
## Output yes
